System: PC-3 [JPC-3]
procedure summary: relative viability (nuclei count vs DMSO), 5 days (fraction); higher = more cells survive
condition parameters: first compound 0.005 µM
measure: relative viability

Summary for this compound, CC1(C)CCC(c2ccc(Cl)cc2)=C(CN2CCN(c3ccc(C(=O)NS(=O)(=O)c4ccc(N[C@H](CCN5CCOCC5)CSc5ccccc5)c(S(=O)(=O)C(F)(F)F)c4)cc3)CC2)C1 [Navitoclax] + COc1cc2c(Oc3ccc(NC(=O)C4(C(=O)Nc5ccc(F)cc5)CC4)cc3F)ccnc2cc1OCCCN1CCOCC1 [Foretinib] (partner 0.25 µM) : relative viability is 1.02

The value of relative viability measured for the compound CC1(C)CCC(c2ccc(Cl)cc2)=C(CN2CCN(c3ccc(C(=O)NS(=O)(=O)c4ccc(N[C@H](CCN5CCOCC5)CSc5ccccc5)c(S(=O)(=O)C(F)(F)F)c4)cc3)CC2)C1 [Navitoclax] + C[C@]1(O)C[C@@H](c2nc(-c3ccc4ccc(-c5ccccc5)nc4c3)c3c(N)nccn32)C1 [Linsitinib] (partner 1 µM) turned out to be 0.964

====

Test system: A-427
procedure summary: relative viability (nuclei count vs DMSO), 5 days (fraction); higher = more cells survive
condition parameters: first compound 1.265 µM
Assign relative viability to each entry below.
Simply state the number, no unit and no words.

// sample O=C(O)c1ccc(-c2c[nH]c3ncc(-c4ccccc4)cc23)cc1C1CCCC1 + C[C@@H](Oc1cc(-c2cnn(C3CCNCC3)c2)cnc1N)c1c(Cl)ccc(F)c1Cl [Crizotinib] (partner 1 µM) , its relative viability was 0.852

Notebook: O=C(O)c1ccc(-c2c[nH]c3ncc(-c4ccccc4)cc23)cc1C1CCCC1 + COc1cccc2cc(-c3nc([C@H]4CC[C@H](C(=O)O)CC4)n4ncnc(N)c34)[nH]c12 [OSI-027] (partner 0.5 µM) , relative viability read as 0.493

get_value(item= O=C(O)c1ccc(-c2c[nH]c3ncc(-c4ccccc4)cc23)cc1C1CCCC1 + CS(=O)(=O)N1CCN(Cc2cc3nc(-c4cccc5[nH]ncc45)nc(N4CCOCC4)c3s2)CC1 [Pictilisib] (partner 1 µM) , readout=relative viability) returns 0.738

====

Test system: NCI-H441
procedure summary: relative viability (nuclei count vs DMSO), 5 days (fraction); higher = more cells survive
condition parameters: first compound 8 µM
satisfied if relative viability is below 0.5. not satisfied if not; exact matches included in not satisfied.

input: Consider the molecule C=C1C(=O)O[C@@H](CCCCCCCC)[C@@H]1C(=O)O [C-75] + Cc1nc(NC(=O)N2CCC[C@H]2C(N)=O)sc1-c1ccnc(C(C)(C)C(F)(F)F)c1 [Alpelisib] (partner 2 µM) . Is its relative viability strictly less than 0.5?
output: not satisfied

input: Report whether reported relative viability is lower than 0.5 (strictly) for C=C1C(=O)O[C@@H](CCCCCCCC)[C@@H]1C(=O)O [C-75] + C[C@@H](Oc1cc(-c2cnn(C3CCNCC3)c2)cnc1N)c1c(Cl)ccc(F)c1Cl [Crizotinib] (partner 1 µM)
output: not satisfied

input: Input C=C1C(=O)O[C@@H](CCCCCCCC)[C@@H]1C(=O)O [C-75] + COc1cccc2cc(-c3nc([C@H]4CC[C@H](C(=O)O)CC4)n4ncnc(N)c34)[nH]c12 [OSI-027] (partner 0.5 µM) ; condition: relative viability strictly below 0.5. Does it hold?
output: not satisfied

input: relative viability under 0.5? Item: C=C1C(=O)O[C@@H](CCCCCCCC)[C@@H]1C(=O)O [C-75] + CC(C)C[C@H](NC(=O)[C@H](Cc1ccccc1)NC(=O)c1cnccn1)B(O)O [Bortezomib] (partner 0.002 µM)
output: satisfied

====

Tested on: UMC-11
procedure summary: relative viability (nuclei count vs DMSO), 5 days (fraction); higher = more cells survive
condition parameters: first compound 2.53 µM
Please provide measured relative viability for the entries that follow.
Answer with the value's number alone.

Query C=C1C(=O)O[C@@H](CCCCCCCC)[C@@H]1C(=O)O [C-75] + C[C@]1(O)C[C@@H](c2nc(-c3ccc4ccc(-c5ccccc5)nc4c3)c3c(N)nccn32)C1 [Linsitinib] (partner 1 µM) on UMC-11; relative viability returned: 0.821

The value of relative viability recorded for C=C1C(=O)O[C@@H](CCCCCCCC)[C@@H]1C(=O)O [C-75] + COc1cc2c(Oc3ccc(NC(=O)C4(C(=O)Nc5ccc(F)cc5)CC4)cc3F)ccnc2cc1OCCCN1CCOCC1 [Foretinib] (partner 0.25 µM) when tested on UMC-11 reads 0.681

Lab entry: UMC-11 assay, compound Oc1nc(-c2ccc(C(F)(F)F)cc2)nc2c1CSCC2 [XAV939] + Nc1nc2[nH]cc(CCc3ccc(C(=O)N[C@@H](CCC(=O)O)C(=O)O)cc3)c2c(=O)[nH]1 [Pemetrexed] (partner 0.2 µM) , relative viability = 0.636

Fill in: UMC-11 relative viability for C=C1C(=O)O[C@@H](CCCCCCCC)[C@@H]1C(=O)O [C-75] + Cc1nc(Nc2ncc(C(=O)Nc3c(C)cccc3Cl)s2)cc(N2CCN(CCO)CC2)n1 [Dasatinib] (partner 0.075 µM) = 0.433

Noted relative viability for Oc1nc(-c2ccc(C(F)(F)F)cc2)nc2c1CSCC2 [XAV939] + COc1cccc2cc(-c3nc([C@H]4CC[C@H](C(=O)O)CC4)n4ncnc(N)c34)[nH]c12 [OSI-027] (partner 0.5 µM) , tested on UMC-11: 0.44

====

Tested on: H3255
procedure summary: relative viability (nuclei count vs DMSO), 5 days (fraction); higher = more cells survive
condition parameters: first compound 0.253 µM
measure: relative viability
# answer = number (no unit)

Measured relative viability, C=C1C(=O)O[C@@H](CCCCCCCC)[C@@H]1C(=O)O [C-75] + C[C@@H](Oc1cc(-c2cnn(C3CCNCC3)c2)cnc1N)c1c(Cl)ccc(F)c1Cl [Crizotinib] (partner 1 µM) : 0.932

relative viability reading for C=C1C(=O)O[C@@H](CCCCCCCC)[C@@H]1C(=O)O [C-75] + CCNC(=O)c1noc(-c2cc(C(C)C)c(O)cc2O)c1-c1ccc(CN2CCOCC2)cc1 [Luminespib] (partner 0.01 µM) : 1.02

relative viability reported for this compound Oc1nc(-c2ccc(C(F)(F)F)cc2)nc2c1CSCC2 [XAV939] + CCNC(=O)c1noc(-c2cc(C(C)C)c(O)cc2O)c1-c1ccc(CN2CCOCC2)cc1 [Luminespib] (partner 0.01 µM) : 0.879

Consider Oc1nc(-c2ccc(C(F)(F)F)cc2)nc2c1CSCC2 [XAV939] + CS(=O)(=O)N1CCN(Cc2cc3nc(-c4cccc5[nH]ncc45)nc(N4CCOCC4)c3s2)CC1 [Pictilisib] (partner 1 µM) . Its measured relative viability is 0.374

Please fill in: relative viability reported for Oc1nc(-c2ccc(C(F)(F)F)cc2)nc2c1CSCC2 [XAV939] + CC(=O)Nc1cccc(-n2c(=O)n(C3CC3)c(=O)c3c(Nc4ccc(I)cc4F)n(C)c(=O)c(C)c32)c1 [Trametinib] (partner 0.02 µM) = 0.528

Summary for this compound, C=C1C(=O)O[C@@H](CCCCCCCC)[C@@H]1C(=O)O [C-75] + CC(=O)c1c(C)c2cnc(Nc3ccc(N4CCNCC4)cn3)nc2n(C2CCCC2)c1=O [Palbociclib] (partner 0.5 µM) : relative viability is 0.28

Input Oc1nc(-c2ccc(C(F)(F)F)cc2)nc2c1CSCC2 [XAV939] + COc1cc2c(Oc3ccc(NC(=O)C4(C(=O)Nc5ccc(F)cc5)CC4)cc3F)ccnc2cc1OCCCN1CCOCC1 [Foretinib] (partner 0.25 µM) . Output relative viability: 0.825

====

For each of the molecules below, state its relative viability.
Test system: HCC-366
procedure summary: relative viability (nuclei count vs DMSO), 5 days (fraction); higher = more cells survive
condition parameters: first compound 0.08 µM
Respond using a number only.

Recorded result, C=C1C(=O)O[C@@H](CCCCCCCC)[C@@H]1C(=O)O [C-75] + O=C(CCCCCCC(=O)Nc1ccccc1)NO [Vorinostat] (partner 1 µM) , relative viability: 0.409

Note to self: relative viability recorded for C=C1C(=O)O[C@@H](CCCCCCCC)[C@@H]1C(=O)O [C-75] + CS(=O)(=O)CCNCc1ccc(-c2ccc3ncnc(Nc4ccc(OCc5cccc(F)c5)c(Cl)c4)c3c2)o1 [Lapatinib] (partner 2 µM) was 1.04

The molecule listed as C=C1C(=O)O[C@@H](CCCCCCCC)[C@@H]1C(=O)O [C-75] + COc1cc2c(Oc3ccc(NC(=O)C4(C(=O)Nc5ccc(F)cc5)CC4)cc3F)ccnc2cc1OCCCN1CCOCC1 [Foretinib] (partner 0.25 µM) has a reported relative viability of 0.909

====

Provide the recorded relative viability for the entries that follow.
Tested on: NCI-H650
procedure summary: relative viability (nuclei count vs DMSO), 5 days (fraction); higher = more cells survive
condition parameters: first compound 0.1 µM

Entry NC(=O)Nc1cc(-c2cccc(F)c2)sc1C(=O)N[C@H]1CCCNC1 [AZD7762] + Cc1nc(NC(=O)N2CCC[C@H]2C(N)=O)sc1-c1ccnc(C(C)(C)C(F)(F)F)c1 [Alpelisib] (partner 2 µM) ; relative viability = 1.19

Form field relative viability, entry NC(=O)Nc1cc(-c2cccc(F)c2)sc1C(=O)N[C@H]1CCCNC1 [AZD7762] + C[C@@H](Oc1cc(-c2cnn(C3CCNCC3)c2)cnc1N)c1c(Cl)ccc(F)c1Cl [Crizotinib] (partner 1 µM) : 0.714

The compound NC(=O)Nc1cc(-c2cccc(F)c2)sc1C(=O)N[C@H]1CCCNC1 [AZD7762] + C[C@]1(O)C[C@@H](c2nc(-c3ccc4ccc(-c5ccccc5)nc4c3)c3c(N)nccn32)C1 [Linsitinib] (partner 1 µM) showed relative viability equal to 0.842

According to the records, this compound NC(=O)Nc1cc(-c2cccc(F)c2)sc1C(=O)N[C@H]1CCCNC1 [AZD7762] + CC(=O)Nc1cccc(-n2c(=O)n(C3CC3)c(=O)c3c(Nc4ccc(I)cc4F)n(C)c(=O)c(C)c32)c1 [Trametinib] (partner 0.02 µM) displays relative viability of 1.05

relative viability in this record for NC(=O)Nc1cc(-c2cccc(F)c2)sc1C(=O)N[C@H]1CCCNC1 [AZD7762] + Nc1nc2[nH]cc(CCc3ccc(C(=O)N[C@@H](CCC(=O)O)C(=O)O)cc3)c2c(=O)[nH]1 [Pemetrexed] (partner 0.2 µM) : 0.968
